Assay Target: MAO-A (Rattus norvegicus, UniProt P21396)
Sequence (P21396 1-526): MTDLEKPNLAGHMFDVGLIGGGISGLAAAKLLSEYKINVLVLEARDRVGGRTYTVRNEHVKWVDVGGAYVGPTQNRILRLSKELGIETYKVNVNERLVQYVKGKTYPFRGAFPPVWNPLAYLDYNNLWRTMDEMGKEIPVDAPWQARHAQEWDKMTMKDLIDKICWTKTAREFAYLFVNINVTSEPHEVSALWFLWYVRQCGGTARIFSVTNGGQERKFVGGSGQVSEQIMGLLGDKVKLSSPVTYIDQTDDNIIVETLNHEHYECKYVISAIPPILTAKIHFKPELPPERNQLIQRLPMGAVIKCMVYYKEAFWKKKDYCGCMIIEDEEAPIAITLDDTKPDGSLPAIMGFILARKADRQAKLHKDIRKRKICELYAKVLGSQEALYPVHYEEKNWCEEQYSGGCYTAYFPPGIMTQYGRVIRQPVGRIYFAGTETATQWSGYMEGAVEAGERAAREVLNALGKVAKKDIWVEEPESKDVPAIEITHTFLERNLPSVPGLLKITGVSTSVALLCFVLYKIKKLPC
pIC50: −log10 of the molar value.
Each entry gets No if its pIC50 stays under 7, and Yes if its pIC50 is 7 or above.

Examples with answers:
CC(C)C/C(=C\F)CN [(E)-2-Isobutyl-3-fluoroallylamine]
No
CCCCCCC/C(=C\F)CN [(E)-2-Heptyl-3-fluoroallylamine]
Yes
CCCCCCCCCCC/C(=C\F)CN [(E)-2-Undecyl-3-fluoroallylamine]
No
CCCCCC/C(=C\F)CN [(E)-2-Hexyl-3-fluoroallylamine]
No

# bool: pIC50 of CC(C)/C(=C\F)CN [(E)-2-Isopropyl-3-fluoroallylamine] >= 7 No

Given CCC(C)/C(=C\F)CN (stereo not shown) [(E)-2-sec-Butyl-3-fluoroallylamine] , state whether its pIC50 is at least 7. No
